Target: alpha-PrP (prion protein, alpha form) (UniProt P04156)
Assay: SPR
Settings: PBS pH 7.0, room temperature
quantity: pKd
Numbers only, as −log10 of the molar value.

What measured pKd goes with GTTCGGCACTTGGGCCCTTTTCTGTGTCTTTCTGTGCCCTTAGATAGTATGTGCAATCA [CaAp-3] ?
6.94
